For each of the molecules below, state its Number of individuals with delta PANSS ≧0% (worsening symptoms).
System: patients suffering from schizophrenia and related disorders
Test: CATIE study: worsening of symptoms (LOCF delta PANSS ≧0%) by OPRP status
Format: in vivo, human
Settings: OPRP Negative; LOCF
One number for each entry.

O=C1Cc2cc(CCN3CCN(c4nsc5ccccc45)CC3)c(Cl)cc2N1
34
Cc1cc2c(s1)Nc1ccccc1N=C2N1CCN(C)CC1
26
OCCN1CCN(CCCN2c3ccccc3Sc3ccc(Cl)cc32)CC1
45
Cc1nc2n(c(=O)c1CCN1CCC(c3noc4cc(F)ccc34)CC1)CCCC2
55

Turning to the following molecule.
Record OCCOCCN1CCN(C2=Nc3ccccc3Sc3ccccc32)CC1 . Reported Number of individuals with delta PANSS ≧0% (worsening symptoms): 62
